# measuredOn: Muscarinic acetylcholine receptor M4 (Homo sapiens)
# assayMethodText: compounds altering M4/GIRK thallium flux, either direction, primary screen, M4 allosteric agonist project, cell-based, HEK293 M4/GIRK, BTC-AM (AID 625);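 further: thallium influx through GIRK channels coupled to M4 in HEK293 cells with BTC-AM dye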
# measurementConditions: at 10 µM, actives lie on both sides
readoutLabel: fluorescence slope
Lab note: record just the number, no unit beside it.

Sample records with fluorescence slope:
compound	fluorescence slope
COCc1[nH]nc2c1C(c1ccc(OC)cc1)C(C#N)=C(N)O2 (stereo unspecified)	0.006
Cc1cccc(OCCN2CSC(=S)N(C)C2)c1	0.0046
Cc1cccn2c(=O)c(/C=C(\C#N)S(=O)(=O)c3ccccc3)c(N3CCN(C)CC3)nc12	0.00316
CN(C)CCCNCCCCNC(=O)/C=N/O	0.00523
CC(C)CNC(=O)c1c(N)n(/N=C/c2cccnc2)c2nc3ccccc3nc12	0.00594

Task item: Recorded fluorescence slope of COc1cc(S(=O)(=O)N2CCN(c3ccc(F)cc3)CC2)ccc1Cl , please.
Reply: 0.00423

###

# measuredOn: Alpha-2C adrenergic receptor (Homo sapiens) (UniProt P18825)
# Sequence (P18825 whole entry, looked up): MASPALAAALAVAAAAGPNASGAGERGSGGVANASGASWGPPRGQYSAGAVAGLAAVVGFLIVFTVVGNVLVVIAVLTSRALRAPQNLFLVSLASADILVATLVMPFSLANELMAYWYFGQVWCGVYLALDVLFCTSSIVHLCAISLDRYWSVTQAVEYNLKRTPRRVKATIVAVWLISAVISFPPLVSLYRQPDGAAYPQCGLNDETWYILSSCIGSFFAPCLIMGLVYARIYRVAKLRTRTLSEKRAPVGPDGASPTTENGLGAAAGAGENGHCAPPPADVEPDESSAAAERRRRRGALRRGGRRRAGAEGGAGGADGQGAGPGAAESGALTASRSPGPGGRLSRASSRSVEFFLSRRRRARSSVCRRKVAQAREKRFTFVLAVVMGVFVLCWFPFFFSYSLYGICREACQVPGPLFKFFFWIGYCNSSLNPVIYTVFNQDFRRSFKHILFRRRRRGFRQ
# assayMethodText: modulators of alpha2C/GIRK thallium flux, primary screen, cell-based, HEK293 alpha2C/GIRK1/2 (AID 624);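 further: slope of fluorescence ratio to pre-addition baseline per second over 15 to 24 s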
# measurementConditions: thallium flux BTC fluorescence, at 10 µM, actives lie on both sides
Strictly below 0.006 in slope: yes. Otherwise: no.

compound	labelValue
Cn1c(=O)c2nc(Cl)n(Cc3ccc(Cl)cc3Cl)c2n(C)c1=O	yes
CCc1nnc(NC(=O)C2Cc3ccccc3CN2S(=O)(=O)c2cccs2)s1 (stereo unspecified)	no

Task item: I'd appreciate it if you could check whether CN(C)c1ccnc(NCc2ccccc2)c1C#N has slope smaller than 0.006.
Reply: yes

###

# assayMethodText: inhibitors of E-selectin induction by TNFa, primary screen, imaging, HUVEC, immunofluorescence, MLSMR starter and 10KST1 sets (AID 487);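 on inhibition: signal is fraction of cell area covered by stained E-selectin grains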
# measurementConditions: HUVEC TNFalpha-induced E-selectin immunofluorescence imaging, at 2 µM; stronger effect = higher value
inhibition below -50% gives 0 (no); inhibition at or above it gives 1 (yes).

Some solved entries appear below for comparison.
compound	labelValue
O=S(=O)(c1ccccc1)N1CCN(S(=O)(=O)c2ccccc2)C1	0 (no)
N#CC1=C(N)OC2=C(C(=O)CCC2)[C@]12C(=O)N(CC(N)=O)c1ccccc12	1 (yes)
COCCNC(=O)C(c1ccc(O)cc1)N(Cc1ccco1)C(=O)CCC(=O)Nc1nccs1 (stereo not drawn)	0 (no)

Task item: Entry COc1ccc2cc(C#N)c(SCC(=O)N3CCCC3)nc2c1 : is its inhibition no less than -50%?
Reply: 0 (no)

Task item: Entry COc1cc(=O)[nH]c(=O)n1CC(=O)c1ccccc1 : is its inhibition no less than -50%?
Reply: 1 (yes)

Task item: Entry CCOC(=O)c1c(N)sc(C(=O)N2CCOCC2)c1C : is its inhibition no less than -50%?
Reply: 1 (yes)

Task item: Entry Cc1cccc(-n2ncc3c(NCCN4CCOCC4)ncnc32)c1 : is its inhibition no less than -50%?
Reply: 1 (yes)

Task item: Entry CCSc1nc2sc3c(c2c2nnc(SCC(=O)NCc4ccco4)n12)CCCC3 : is its inhibition no less than -50%?
Reply: 1 (yes)

Task item: Entry CCCc1nc(N2CCCC2)c(C#N)c2c1CCCC2 : is its inhibition no less than -50%?
Reply: 0 (no)

Task item: Entry O=C(Cc1ccccc1)Nc1cccc(-c2nnc(-c3ccco3)o2)c1 : is its inhibition no less than -50%?
Reply: 1 (yes)

Task item: Entry Cc1nnc(SCC(=O)Nc2sc3c(c2C#N)CCCC3)[nH]c1=O : is its inhibition no less than -50%?
Reply: 1 (yes)

Task item: Entry COc1ccc(/C(O)=C2\C(=O)C(=O)N(CCN(C)C)C2c2cccc(OC)c2OC)cc1Cl (stereo not drawn) : is its inhibition no less than -50%?
Reply: 1 (yes)

Task item: Entry COC(=O)c1ccc(C2/C(=C(/O)c3ccc(OC)cc3)C(=O)C(=O)N2Cc2ccco2)cc1 (stereo not drawn) : is its inhibition no less than -50%?
Reply: 1 (yes)

Task item: Entry COc1cc(NC(=O)Cc2ccccc2OC)cc(OC)c1 : is its inhibition no less than -50%?
Reply: 0 (no)

Task item: Entry O=C(Nc1ccc2snnc2c1)N1CCN(c2ccccc2)CC1 : is its inhibition no less than -50%?
Reply: 1 (yes)

Task item: Entry O=C(OCCN1CCOCC1)c1ccc2c(c1)OCCO2 : is its inhibition no less than -50%?
Reply: 1 (yes)

###

# assayMethodText: inhibitors of E-selectin induction by TNFa, primary screen, imaging, HUVEC, immunofluorescence, MLSMR starter and 10KST1 sets (AID 487);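 on nuclei count: 100% = median nuclei count of all wells on the same plate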
# measurementConditions: HUVEC TNFalpha-induced E-selectin immunofluorescence imaging, at 2 µM; measured here: cell number, toxicity
# maps each entry to its nuclei count
Express your answer in %, writing the number without its unit.

Sample records with nuclei count:
compound	readoutLabel	displayUnit	obsValue
COc1cc(S(=O)(=O)N2CCN(C)CC2)c(OC)cc1Br	nuclei count	%	114
O=C(c1ccco1)N1CCN(CC2CC3C=CC2C3)CC1 (configuration not stated)	nuclei count	%	106
Nc1ccc2oc(-c3ccccc3Cl)nc2c1	nuclei count	%	145

Then there is this compound:
Task item: Recorded nuclei count of O=C(Nc1cccc2ccccc12)c1cnccn1 , please.
Reply: 117

###

# assayMethodText: inhibitors of E-selectin induction by TNFa, primary screen, imaging, HUVEC, immunofluorescence, MLSMR starter and 10KST1 sets (AID 487)
# measurementConditions: HUVEC TNFalpha-induced E-selectin immunofluorescence imaging, at 2 µM
Active and inactive are the calls of the source.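 Rule for the calls: active = visually confirmed hit in the image check and inhibition above 20%; inconclusive = visually confirmed hit but inhibition not above 20%; inactive = no visual hit in the image check.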
Form entry, call: pick from 1 = active, -1 = inactive

Some solved entries appear below for comparison.
molecule	labelValue
COc1ccc(OCC(O)CN2C(=O)NC(C)(C)C2=O)cc1 (stereo not given)	-1
CCOC(=O)CSc1nnc(Cn2c(=O)sc3ccccc32)n1C	-1
COc1cc(NC(=O)C2C3C=CC(C3)C2C(=O)O)c(OC)cc1Cl (stereo not given)	-1
COC(=O)C1=C(C)n2nnnc2NC1c1ccc(Cl)cc1 (stereo not given)	-1
Nc1ccc2oc(-c3cc(Br)ccc3Cl)nc2c1	-1

Task item: Dear all, I need the recorded test outcome for COc1ccc(C2NC(=O)NC(O)(C(F)(F)F)C2C(=O)c2ccc(F)cc2)cc1 (stereo not given) , thank you.
Reply: -1

Task item: Dear all, I need the recorded test outcome for COc1cc(C2C(C(=O)c3sc(C)nc3C)=C(O)C(=O)N2CCN(C)C)cc(OC)c1OC (stereo not given) , thank you.
Reply: -1

Task item: Dear all, I need the recorded test outcome for O=C(c1ccco1)N1CCN(CC2CC3C=CC2C3)CC1 (stereo not given) , thank you.
Reply: -1

Task item: Dear all, I need the recorded test outcome for CCOC(=O)C1=C(C)Nc2nc(SCC(=O)OC)nn2C1c1cc(F)cc(F)c1 (stereo not given) , thank you.
Reply: -1

Task item: Dear all, I need the recorded test outcome for COC(=O)c1cc2ccsc2n1Cc1nc(-c2ccc(OC)cc2)oc1C , thank you.
Reply: -1

Task item: Dear all, I need the recorded test outcome for CCOC(=O)C(NC(=O)Nc1ccccc1)(OCC)C(F)(F)F (stereo not given) , thank you.
Reply: -1

Task item: Dear all, I need the recorded test outcome for Cc1ccc(C2CC(c3cccs3)n3nc(N)nc3N2)cc1 (stereo not given) , thank you.
Reply: -1

###

# maps each entry to its fluorescence slope
# measuredOn: Voltage-gated potassium channel subunit beta-2 (Rattus norvegicus) (UniProt P62483)
# Sequence (P62483 whole entry, looked up): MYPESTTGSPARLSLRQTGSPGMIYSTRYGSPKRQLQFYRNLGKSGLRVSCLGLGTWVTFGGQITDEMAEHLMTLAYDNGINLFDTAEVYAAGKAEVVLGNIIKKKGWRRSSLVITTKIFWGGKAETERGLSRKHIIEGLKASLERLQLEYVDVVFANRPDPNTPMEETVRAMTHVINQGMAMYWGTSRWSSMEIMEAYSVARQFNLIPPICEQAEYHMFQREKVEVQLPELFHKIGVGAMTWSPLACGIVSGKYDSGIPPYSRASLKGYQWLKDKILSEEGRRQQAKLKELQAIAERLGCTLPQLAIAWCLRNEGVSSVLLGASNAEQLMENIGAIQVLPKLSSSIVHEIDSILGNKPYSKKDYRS
# assayMethodText: KvBeta enzyme negative modulators, primary screen, biochemical, NADPH fluorescence (AID 622);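 further: slope of raw intensity against log time taken from 70 to 1610 s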
# measurementConditions: recombinant KvBeta, 4-cyanobenzaldehyde reduction, at 10 µM, stronger effect = higher value
Lab note: record just the number, no unit beside it.

molecule	fluorescence slope
CCN(C(=O)c1c(OC)cccc1OC)c1nnc(-c2cccnc2)s1	-0.336
Cc1ccccc1-n1c(=O)cc(NCc2ccc3c(c2)OCO3)[nH]c1=O	-0.614
COC(=O)/C=c1/s/c(=C(\C#N)C(=O)NCc2ccco2)n(-c2ccccc2)c1=O	-0.455
c1cn(CC2(Cn3ccnc3)COC2)cn1	-0.614
CCN(CC)CCCNC(=O)c1nn(-c2ccc(OC)cc2OC)c(=O)c2ccccc12	-0.597
CC(C)(C)n1ncc2c(=O)n(CC(=O)NCc3ccc(F)cc3)cnc21	-0.367

Task item: Form: Entry = COc1cccc(OC)c1C(=O)Nc1nc2ccc(S(C)(=O)=O)cc2s1 | System = Voltage-gated potassium channel subunit beta-2 (Rattus norvegicus) (UniProt P62483) | fluorescence slope = ____
Reply: -0.409

Task item: Form: Entry = CCC1CCCCN1CCNS(=O)(=O)c1ccc2c(c1)oc(=O)n2C (stereo unspecified) | System = Voltage-gated potassium channel subunit beta-2 (Rattus norvegicus) (UniProt P62483) | fluorescence slope = ____
Reply: -0.581

Task item: Form: Entry = O=C(OCc1cc2ccccc2[nH]c1=O)c1ccco1 | System = Voltage-gated potassium channel subunit beta-2 (Rattus norvegicus) (UniProt P62483) | fluorescence slope = ____
Reply: -0.476

Task item: Form: Entry = N#CCCN1CCN(S(=O)(=O)c2ccc(S(=O)(=O)NC3CCCC3)cc2)CC1 | System = Voltage-gated potassium channel subunit beta-2 (Rattus norvegicus) (UniProt P62483) | fluorescence slope = ____
Reply: -0.624

Task item: Form: Entry = O=C(Oc1cccnc1)c1ccco1 | System = Voltage-gated potassium channel subunit beta-2 (Rattus norvegicus) (UniProt P62483) | fluorescence slope = ____
Reply: -0.449
